Target: Glutamate receptor ionotropic, NMDA 2B (Homo sapiens, UniProt Q05586+Q13224)
Sequence (Q13224 whole entry, one chain of several): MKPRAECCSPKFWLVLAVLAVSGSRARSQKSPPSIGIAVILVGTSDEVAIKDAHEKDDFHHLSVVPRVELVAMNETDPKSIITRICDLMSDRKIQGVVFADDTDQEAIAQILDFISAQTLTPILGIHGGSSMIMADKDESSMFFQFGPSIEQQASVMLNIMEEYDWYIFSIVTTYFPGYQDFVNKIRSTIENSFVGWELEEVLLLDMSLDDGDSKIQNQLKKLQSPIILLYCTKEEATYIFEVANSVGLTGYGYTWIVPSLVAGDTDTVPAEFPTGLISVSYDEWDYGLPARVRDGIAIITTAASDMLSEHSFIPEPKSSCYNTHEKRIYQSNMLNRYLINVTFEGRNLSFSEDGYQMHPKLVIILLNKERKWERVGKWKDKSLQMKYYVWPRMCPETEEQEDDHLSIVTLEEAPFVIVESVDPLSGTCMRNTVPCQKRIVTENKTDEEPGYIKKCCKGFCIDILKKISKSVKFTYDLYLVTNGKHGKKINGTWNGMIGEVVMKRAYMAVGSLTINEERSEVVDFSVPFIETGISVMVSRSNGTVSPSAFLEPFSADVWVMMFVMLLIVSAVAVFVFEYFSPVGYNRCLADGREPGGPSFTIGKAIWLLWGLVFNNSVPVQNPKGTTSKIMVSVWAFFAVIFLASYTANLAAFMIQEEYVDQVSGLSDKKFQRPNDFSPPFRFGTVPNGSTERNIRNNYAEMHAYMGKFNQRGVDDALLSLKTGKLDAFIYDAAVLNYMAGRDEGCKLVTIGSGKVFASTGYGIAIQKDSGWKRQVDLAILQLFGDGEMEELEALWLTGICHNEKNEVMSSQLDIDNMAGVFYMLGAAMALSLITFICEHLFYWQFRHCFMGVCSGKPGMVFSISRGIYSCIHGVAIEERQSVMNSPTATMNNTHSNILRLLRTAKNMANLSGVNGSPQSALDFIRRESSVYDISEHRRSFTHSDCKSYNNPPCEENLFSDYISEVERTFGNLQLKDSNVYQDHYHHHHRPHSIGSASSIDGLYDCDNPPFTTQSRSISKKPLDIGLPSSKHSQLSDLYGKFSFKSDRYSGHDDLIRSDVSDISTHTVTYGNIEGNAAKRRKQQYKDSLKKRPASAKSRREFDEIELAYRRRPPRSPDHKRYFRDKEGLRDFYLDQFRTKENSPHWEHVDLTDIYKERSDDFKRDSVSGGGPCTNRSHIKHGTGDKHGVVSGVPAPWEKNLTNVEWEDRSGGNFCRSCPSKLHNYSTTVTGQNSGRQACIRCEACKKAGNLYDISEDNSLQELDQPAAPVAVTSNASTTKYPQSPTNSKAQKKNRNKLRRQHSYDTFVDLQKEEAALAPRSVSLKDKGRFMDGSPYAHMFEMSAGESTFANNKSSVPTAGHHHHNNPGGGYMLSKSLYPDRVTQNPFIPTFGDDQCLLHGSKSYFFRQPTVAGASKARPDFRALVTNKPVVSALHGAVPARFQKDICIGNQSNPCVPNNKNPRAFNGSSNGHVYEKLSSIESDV
Test: Inhibition of the response to NMDA glutamate/glycine receptor NR2B subtype was determined using FLIPR assay
READOUT LABEL: pIC50
By convention, pIC50 is the negative base-10 log of a molar concentration.

Consider the reported pIC50 for these molecules:
Cc1cc(C)cc(C/N=C(\N)c2ccc(C(F)(F)F)cc2)c1 = 8.06
N=C(NCc1cc(Cl)cc(Cl)c1)c1ccc(OC(F)(F)F)cc1 = 7.62
N=C(NCc1ccccc1)c1ccc(C(F)(F)F)cc1 = 6.44

Any idea what pIC50 was measured for N=C(NCc1cccc(C(F)(F)F)c1)c1ccc(C(F)(F)F)cc1 ?
6.18

Any idea what pIC50 was measured for N=C(NCc1ccccc1OC(F)(F)F)c1ccc(Cl)c(Cl)c1 ?
7.24

Any idea what pIC50 was measured for N=C(NCc1ccccc1)c1ccc(OC(F)(F)F)cc1 ?
7.34

Any idea what pIC50 was measured for N=C(NCc1cccc(Cl)c1)c1ccc(Cl)cc1 ?
6.80

Any idea what pIC50 was measured for COc1ccccc1C/N=C(\N)c1ccc(OC(F)(F)F)cc1 ?
8.39

Any idea what pIC50 was measured for COc1cccc(C/N=C(\N)c2ccc(OC(F)(F)F)cc2)c1 ?
8.01

Any idea what pIC50 was measured for NC(=NCc1ccccc1C(F)(F)F)c1ccc(OC(F)(F)F)cc1 ?
7.33

Any idea what pIC50 was measured for NC(=NCc1ccccc1)c1ccc(Cl)cc1 ?
6.14

Attribution: ChEMBL document CHEMBL1136592
